Values from patent US5629347A

target: human NK1R (Homo sapiens, UniProt P25103); test: biochemical; conditions: displacement of 125I-substance P; human NK1R in COS or CHO cells
Sequence (P25103 whole entry): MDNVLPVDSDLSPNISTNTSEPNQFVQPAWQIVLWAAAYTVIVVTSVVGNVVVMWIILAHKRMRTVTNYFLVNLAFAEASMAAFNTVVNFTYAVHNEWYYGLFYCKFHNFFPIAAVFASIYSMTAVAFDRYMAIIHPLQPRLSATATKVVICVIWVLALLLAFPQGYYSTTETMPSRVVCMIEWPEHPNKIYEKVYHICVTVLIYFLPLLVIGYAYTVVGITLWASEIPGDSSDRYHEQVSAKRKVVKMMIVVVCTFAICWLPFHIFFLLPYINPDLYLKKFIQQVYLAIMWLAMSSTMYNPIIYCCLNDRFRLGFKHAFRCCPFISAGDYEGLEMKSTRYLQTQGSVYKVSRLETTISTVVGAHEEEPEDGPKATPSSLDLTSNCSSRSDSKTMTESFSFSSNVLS
Where a name gives a salt, the structure may show the parent alone.
Each entry below lists one item and its recorded IC50 value.
Number in nM, nothing else.

QUERY: Report IC50 for Cc1ccc(C)c(COCC(N)C(c2ccccc2)c2ccccc2)c1 (stereo not drawn) [Example 28, oxalate salt]
RESULT: 300

QUERY: Report IC50 for CN(C)C(=O)CN(C)C(COCc1cc(C(F)(F)F)cc(C(F)(F)F)c1)C(c1ccccc1)c1ccccc1 (stereo not drawn) [Example 49, oxalate salt]
RESULT: 15

QUERY: Report IC50 for CN(C)CCNC(=O)CNC(COCc1cc(C(F)(F)F)cc(C(F)(F)F)c1)C(c1ccccc1)c1ccccc1 (stereo not drawn) [Example 52, bis oxalate salt]
RESULT: 1

QUERY: Report IC50 for CN(CC(N)=O)C(COCc1cc(C(F)(F)F)cc(C(F)(F)F)c1)C(c1ccccc1)c1ccccc1 (stereo not drawn) [Example 72, oxalate salt]
RESULT: 7

QUERY: Report IC50 for Cc1cc(C)cc(COCC(NCC(=O)O)C(c2ccccc2)c2ccccc2)c1 (stereo not drawn) [Example 45]
RESULT: 40

---

molecular target: UniProt:P25103; assay: biochemical; details: displacement of 125I-substance P; human NK1R in COS or CHO cells
Where a name gives a salt, the structure may show the parent alone.
Each entry below lists one item and its recorded pIC50 value.
Would you please state pIC50, meaning minus log10 of the concentration in mol/L, as a bare number?

// known answers, use as guide
>  <compound>
Cc1cc(C)cc(COCC(C(c2ccccc2)c2ccccc2)N2CCCC2)c1 (stereo not shown) [Example 13, tosylate salt]

>  <obs.value>
7.70

$$$$
>  <compound>
COC(=O)CNC(COCc1cc(C)cc(C)c1)C(c1ccccc1)c1ccccc1 (stereo not shown) [Example 20, tosylate salt]

>  <obs.value>
7.40

$$$$
>  <compound>
Cc1cc(C)cc(COCC(C(c2ccccc2)c2ccccc2)N2CCOCC2)c1 (stereo not shown) [Example 15]

>  <obs.value>
7.00

$$$$

QUERY: Report pIC50 for O=C1CN(C(COCc2cc(C(F)(F)F)cc(C(F)(F)F)c2)C(c2ccccc2)c2ccccc2)CCN1 (stereo not shown) [Example 66, hemi oxalate salt]
RESULT: 8.40
